- Test system: GH3-TRE-Luc cell line
- Setup conditions: read-out: AC50 (uM) modified / 1000; Tox21_110001=Tox21_110325; viability, 1 nM T3 present, 24 h
Measurement label: CC50 (µM)
Answers are plain numbers, in µM.

Exercise: Report measured CC50; entry is [H]/N=C(\N/C(=N/[H])NCCCCCCNC(=N)NC(=N)Nc1ccc(Cl)cc1)Nc1ccc(Cl)cc1 [Chlorhexidine]
Solution: 12.4

###

- Assay comment: in vitro
- Setup conditions: rat, gh3-tre-luc cells, AC50 (uM) modified / 1000, Tox21_110001=Tox21_201295; viability, 1 nM T3 present, 24 h
Measurement label: CC50 at 24 h

Exercise: Specify CC50 at 24 h for COC(=O)Nc1cccc(OC(=O)Nc2cccc(C)c2)c1 [Phenmedipham] and stop.
Solution: > 90 µM

###

- Assay comment: in vitro
- Setup conditions: rat, gh3-tre-luc cells, AC50 (uM) modified / 1000, Tox21_110001=Tox21_200937; viability, 1 nM T3 present, 24 h
Measurement label: CC50 at 24 h

Exercise: Please look at this compound and report its CC50 at 24 h: O=[N+]([O-])c1cc(Cl)c(Cl)cc1Cl [2,4,5-Trichloronitrobenzene]
Solution: > 90 µM

###

- Assay comment: in vitro
- Setup conditions: rat, gh3-tre-luc cells, AC50 (uM) modified / 1000, Tox21_110001=Tox21_303332; viability, 1 nM T3 present, 24 h
Measurement label: CC50 at 24 h (µM)
Give bare numbers, in µM.

Exercise: Return CC50 at 24 h (reported value) for this compound: `CCCCCc1cc(O)cc(O)c1`
Solution: 75.4

###

- Assay comment: in vitro
- Setup conditions: rat, gh3-tre-luc cells, AC50 (uM) modified / 1000
Measurement label: CC50 at 24 h

# example entries with known answers
# Compound, Obs value
measured = [
    ("O=[N+]([O-])c1cc([N+](=O)[O-])c2ccc(S(=O)(=O)O)cc2c1O", "65.4 µM"),
    ("COC(OC)C(C)c1ccccc1 (stereo not shown)", "> 90 µM"),
    ("NC(=O)N[C@@H](CCC(=O)O)C(=O)O", "> 50 µM"),
    ("C=CC(C)(CCC=C(C)C)OC(C)=O (stereo not shown) [Linalyl acetate]", "> 90 µM"),
    ("Cc1cc(O)c(C(=O)N[C@@H](C(=O)N[C@@H]2C(=O)N3C(C(=O)O)=C(CSc4nnnn4C)CS[C@H]23)c2ccc(O)cc2)cn1 [Cefpiramide acid]", "> 50 µM"),
]

Dear colleague, could you please provide CC50 at 24 h for the compounds listed below?
1. CCCCCCCCCCCCCC(=O)OCC [Ethyl tetradecanoate]
2. CC(O)C(=O)O (stereo not shown) [Calcium lactate]
3. CCc1ccccc1
4. Cc1c(O)c(=O)ccn1C
5. CCOC(=O)OC(C)OC1=C(C(=O)Nc2ccccn2)N(C)S(=O)(=O)c2ccccc21 (stereo not shown)

Solution:
1. > 90 µM
2. > 90 µM
3. > 90 µM
4. > 50 µM
5. > 50 µM

###

- Test system: GH3-TRE-Luc cell line
- Setup conditions: read-out: AC50 (uM) modified / 1000; Tox21_110001=Tox21_202629; viability, 1 nM T3 present, 24 h
Measurement label: CC50 (µM)
One number for each entry, in µM.

Exercise: Input `CCCCCCCCCCCCn1cc[n+](C)c1` , output reported CC50.
Solution: 3.46

// provenance: paper PMC6792352
